Tested on: pAb 313
Test: Cross reactivity of compounds spiked in buffer with pAb 313
Assay type: binding, rabbit
Details: compound spiked in buffer
parameter: Cross Reactivity of 313 (vs TFV standard)

- compound: "Nc1ncnc2c1ncn2CCOCP(=O)(O)O [Adefovir]"
  target-or-test-system: "pAb 313"
  measured-result: "Reactive (0.1%)"
- compound: "CNc1ncnc2c1ncn2[C@@H]1O[C@H](COP(=O)(O)O)[C@@H](O)[C@H]1O [N6 Methyladenosine 5′ Monophosphate]"
  target-or-test-system: "pAb 313"
  measured-result: "None"
- compound: "Nc1ncnc2c1ncn2[C@@H]1O[C@H](CO)[C@@H](OP(=O)(O)O)[C@H]1O [Adenosine 3′ Monophosphate]"
  target-or-test-system: "pAb 313"
  measured-result: "Reactive (0.1%)"
- compound: "Nc1ncnc2c1ncn2[C@H]1C[C@H](O)[C@@H](COP(=O)(O)OP(=O)(O)OP(=O)(O)O)O1 [2′ Deoxyadenosine 5′ Triphosphate]"
  target-or-test-system: "pAb 313"
  measured-result: "None"
- compound: "Nc1ncnc2c1ncn2[C@@H]1O[C@H](CO)[C@@H](O)[C@H]1O [Adenosine]"
  target-or-test-system: "pAb 313"
  measured-result: "Reactive (0.1%)"
- compound: "Nc1ncnc2c1ncn2[C@@H]1O[C@H](COP(=O)(O)O)[C@@H](O)[C@H]1O.O [Adenosine 5′ Monophosphate Monohydrate]"
  target-or-test-system: "pAb 313"
  measured-result: "None"
- compound: "Nc1nc2c(ncn2[C@@H]2O[C@H](COP(=O)([O-])[O-])[C@@H](O)[C@H]2O)c(=O)[nH]1.[Na+].[Na+] [Guanosine 5′ Monophosphate Disodium]"
  target-or-test-system: "pAb 313"
  measured-result: "None"

====

System: pAb 312
Experiment: Cross reactivity of compounds spiked in buffer with pAb 312
Type: binding, rabbit
Settings: compound spiked in buffer
parameter: Cross Reactivity of 312 (vs TFV standard)

- compound: "Nc1nc2c(ncn2[C@@H]2O[C@H](COP(=O)([O-])[O-])[C@@H](O)[C@H]2O)c(=O)[nH]1.[Na+].[Na+] [Guanosine 5′ Monophosphate Disodium]"
  target-or-test-system: "pAb 312"
  measured-result: "None"
- compound: "Nc1ncnc2c1ncn2[C@@H]1O[C@H](CO)[C@@H](OP(=O)(O)O)[C@H]1O [Adenosine 3′ Monophosphate]"
  target-or-test-system: "pAb 312"
  measured-result: "Reactive (0.1%)"
- compound: "Nc1ncnc2c1ncn2[C@@H]1O[C@H](COP(=O)([O-])OP(=O)([O-])OP(=O)(O)O)[C@@H](O)[C@H]1O.[Na+].[Na+] [Adenosine 5′ Triphosphate Disodium]"
  target-or-test-system: "pAb 312"
  measured-result: "None"
- compound: "Nc1ncnc2c1ncn2[C@H]1C[C@H](O)[C@@H](COP(=O)(O)OP(=O)(O)OP(=O)(O)O)O1 [2′ Deoxyadenosine 5′ Triphosphate]"
  target-or-test-system: "pAb 312"
  measured-result: "None"
- compound: "Nc1ncnc2c1ncn2[C@@H]1O[C@H](CO)[C@@H](O)[C@H]1O"
  target-or-test-system: "pAb 312"
  measured-result: "None"
- compound: "Nc1ncnc2c1ncn2CCOCP(=O)(O)O"
  target-or-test-system: "pAb 312"
  measured-result: "Reactive (0.1%)"
- compound: "CNc1ncnc2c1ncn2[C@@H]1O[C@H](COP(=O)(O)O)[C@@H](O)[C@H]1O [N6 Methyladenosine 5′ Monophosphate]"
  target-or-test-system: "pAb 312"
  measured-result: "Reactive (0.1%)"
- compound: "Nc1ccn(C[C@@H](CO)OCP(=O)(O)O)c(=O)n1 [Cidofovir Hydrate]"
  target-or-test-system: "pAb 312"
  measured-result: "None"
- compound: "Nc1ncnc2c1ncn2[C@@H]1O[C@H](COP(=O)(O)O)[C@@H](O)[C@H]1O.O [Adenosine 5′ Monophosphate Monohydrate]"
  target-or-test-system: "pAb 312"
  measured-result: "None"
- compound: "Nc1nc2c(ncn2[C@H]2C[C@H](O)[C@@H](COP(=O)(O)OP(=O)(O)OP(=O)(O)O)O2)c(=O)[nH]1 [2′Deoxyguanosine 5′ Triphosphate]"
  target-or-test-system: "pAb 312"
  measured-result: "None"
- compound: "CNc1ncnc2c1ncn2[C@@H]1O[C@H](CO)[C@@H](O)[C@H]1O"
  target-or-test-system: "pAb 312"
  measured-result: "None"
